# STUDY TARGET: truncated PI3Kα (p110α/iSH2 p85α) (Homo sapiens (Human))
# Sequence (P42336 whole entry, the tested form may be a part): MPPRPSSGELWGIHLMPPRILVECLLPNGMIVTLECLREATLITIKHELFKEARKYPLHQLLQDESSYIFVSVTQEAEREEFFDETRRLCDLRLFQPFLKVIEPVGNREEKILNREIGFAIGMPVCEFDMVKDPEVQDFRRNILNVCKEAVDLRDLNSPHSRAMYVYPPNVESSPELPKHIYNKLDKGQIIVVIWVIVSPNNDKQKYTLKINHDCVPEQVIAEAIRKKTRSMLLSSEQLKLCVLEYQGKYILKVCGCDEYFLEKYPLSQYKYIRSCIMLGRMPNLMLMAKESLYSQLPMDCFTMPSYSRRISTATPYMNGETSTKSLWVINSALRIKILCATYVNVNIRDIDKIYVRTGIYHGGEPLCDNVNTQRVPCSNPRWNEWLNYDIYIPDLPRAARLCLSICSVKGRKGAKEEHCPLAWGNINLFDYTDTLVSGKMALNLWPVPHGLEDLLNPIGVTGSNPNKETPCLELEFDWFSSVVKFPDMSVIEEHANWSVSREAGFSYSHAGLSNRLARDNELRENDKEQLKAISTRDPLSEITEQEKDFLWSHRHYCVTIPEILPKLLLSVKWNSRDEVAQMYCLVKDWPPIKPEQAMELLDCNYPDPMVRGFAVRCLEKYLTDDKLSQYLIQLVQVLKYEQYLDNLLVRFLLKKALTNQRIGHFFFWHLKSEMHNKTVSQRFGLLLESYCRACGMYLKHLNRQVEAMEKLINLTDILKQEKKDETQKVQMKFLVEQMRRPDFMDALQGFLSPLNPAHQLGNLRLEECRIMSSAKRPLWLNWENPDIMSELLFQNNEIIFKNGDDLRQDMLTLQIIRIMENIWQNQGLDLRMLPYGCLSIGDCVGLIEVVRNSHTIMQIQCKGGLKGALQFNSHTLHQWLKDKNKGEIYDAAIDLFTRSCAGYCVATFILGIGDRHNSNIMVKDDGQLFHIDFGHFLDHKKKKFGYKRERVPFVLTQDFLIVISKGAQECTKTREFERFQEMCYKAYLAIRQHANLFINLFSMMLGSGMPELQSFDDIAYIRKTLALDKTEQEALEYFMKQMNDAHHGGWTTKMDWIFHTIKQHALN
# EXPERIMENT SUMMARY: PI3KA_Act fluorescence polarization kinase assay (Ki)
# Type: biochemical
# CONDITION: 1 mM ATP
MEASUREMENT KIND: PI3KA_Act Ki (nM)
Respond numerically; units are nM and should not be typed.

> print(dat)
                                   compound  measurement.kind  quantitative.readout
1  C[C@@]1(N2CCc3c(-c4cnc(N)nc4)nc(N4CCOCC4)nc32)CCN(C(=O)N2CC(O)C2)C1      PI3KA_Act Ki                 0.063

Consider the compound "CNC(=O)COC(=O)N1CC(N2CCc3c(-c4cnc(N)nc4)nc(N4CCOCC4)nc32)C1" and give its measured PI3KA_Act Ki.
0.159

// query PI3KA_Act Ki value for entry "CNS(=O)(=O)N1CC[C@H](N2CCc3c(-c4cnc(N)nc4)nc(N4CCOC[C@H]4C)nc32)C1"
3.251

# lookup: PI3KA_Act Ki of "CC(C)(CO)N1CCc2c(-c3cnc(N)nc3)nc(N3CCOCC3)nc21"
0.393

Looking for the measured PI3KA_Act Ki of "COC(=O)N1CC(C)(N2CCc3c(-c4cnc(N)nc4)nc(N4CCOCC4)nc32)C1" , can you help?
0.055

Can you look up the measured PI3KA_Act Ki of C[C@@]1(N2CCc3c(-c4cnc(N)nc4)nc(N4CCOCC4)nc32)CCN(C(=O)C(O)C2CC2)C1 (single isomer, unassigned) [Example 326] for me?
0.048

Which PI3KA_Act Ki reading was recorded for the compound "CC(C)C(=O)N1CC[C@@](C)(N2CCc3c(-c4cnc(N)nc4)nc(N4CCOCC4)nc32)C1" ?
0.122

# lookup: PI3KA_Act Ki of "C[C@@H]1COCCN1c1nc(-c2cnc(N)nc2)c2c(n1)N([C@]1(C)CCNC1)CC2"
7.437

Please report the recorded PI3KA_Act Ki for CS(=O)(=O)N1CC2CC2(N2CCc3c(-c4cnc(N)nc4)nc(N4CCOCC4)nc32)C1 (racemic) .
0.132

Would you kindly share the measured PI3KA_Act Ki for "C[C@H]1COCCN1c1nc(-c2cnc(N)nc2)c2c(n1)N([C@H]1CCN(S(C)(=O)=O)C1)CC2" ?
0.257

Which PI3KA_Act Ki value is on record for "C[C@]1(N2CCc3c(-c4cnc(N)nc4)nc(N4CCOCC4)nc32)CCN(C(=O)[C@@H]2CCCN2)C1.Cl" ?
0.026

Item under review: "C[C@H](C(=O)N1CC[C@](C)(N2CCc3c(-c4cnc(N)nc4)nc(N4CCOCC4)nc32)C1)N(C)C" . Reported PI3KA_Act Ki?
0.073

Reference source for all entries: patent US9260439B2
